Value source: PubChem BioAssay

- Test protocol: Restrictive medium S. cerevisiae growth inhibition, OD615, pilot screen of yeast lifespan reduction project, restrictive growth control (AID 706);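 also: modified DeaD lifespan yeast strain shifted to restrictive glucose medium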
- Stated conditions: OD615, 48 h, at 10 µM, active compounds read high
The following compounds are listed with their measured growth inhibition values.
Please respond with the number in % and leave the unit unwritten.

Compound: COc1ccc(Cl)cc1C(=O)N(Cc1nc(-c2cccc(C)c2)no1)C(C)C
Value units: %
growth inhibition: -10.7

Compound: CC(=O)Nc1ccc(OC/C=C(\C)Cl)cc1
Value units: %
growth inhibition: -7.54

Compound: COc1ccc(N2C(=O)C3CCCN3C2c2ccc(Cl)cc2)cc1 (stereo unspecified)
Value units: %
growth inhibition: -6.83

Compound: CCOC(=O)C1=C(C)Nc2nc(C)nn2C1c1ccc(OC)c(OC)c1 (stereo unspecified)
Value units: %
growth inhibition: -3.96

Compound: CCCC(=N)C1=C(O)CC(CC(C)SCC)CC1=O (stereo unspecified)
Value units: %
growth inhibition: 5.29

Compound: Cc1cccc(NC(=O)CN(C)S(=O)(=O)c2cccc3cccnc23)c1
Value units: %
growth inhibition: -0.265

Compound: CN1CCN(C(=O)c2ccc3c(c2)N(Cc2cccc(Cl)c2)C(=O)c2ccccc2S3=O)CC1 (stereo unspecified)
Value units: %
growth inhibition: -10.7

Compound: O=C(NCc1ccco1)c1ccc2c(c1)N(Cc1ccccc1)C(=O)CS2=O (stereo unspecified)
Value units: %
growth inhibition: 3.41

Compound: O=C(CCS(=O)NCc1ccccc1)NCc1ccccc1 (stereo unspecified)
Value units: %
growth inhibition: -11.4

Compound: CCCN1CCN(C(=O)Cn2ncc3ccccc32)CC1
Value units: %
growth inhibition: -16.9

Look up growth inhibition: "CC(=O)c1c(C)nn(C(=O)c2cccs2)c1C"
5.09
